target: GFP-tagged CBP bromodomain (Homo sapiens); assay: Microscale thermophoresis (MST); assay type: binding; details: Figure 3C, MST; read-out: MST Kd
Sequence (Q92793 1085-1192 limits assumed): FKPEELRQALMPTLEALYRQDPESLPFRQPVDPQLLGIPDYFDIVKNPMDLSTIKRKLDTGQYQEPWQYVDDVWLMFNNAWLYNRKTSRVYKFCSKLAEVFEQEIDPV
measurement.type: Kd (nM)

[a] COC1CCC(n2c(C3CCCC(=O)N3c3cc(C(F)(F)F)cc(C(F)(F)F)c3)nc3cc(-c4c(C)noc4C)ccc32)CC1 (centres unmarked)
[b] COC1CCC(n2c(C3CCCC(=O)N3c3cccc(C(C)(C)C)c3)nc3cc(-c4c(C)noc4C)ccc32)CC1 (centres unmarked)
Could you determine which record has the numerically smaller Kd? Candidates: a and b Returns: label corresponding to the selected item.
b
(b: 30 nM, a: 116 nM)

Origin of measurements: paper PMC11045757
